Measured on: T1, RSV F antigen (respiratory syncytial virus (RSV), UniProt P03420 26-524)
T1 construct: also called F antigen of RSV; RSV F protein
Run description: antibody titration ELISA on 500 ng RSV F antigen; qualitative score from titration curves

{"columns": ["Binder", "Ag Score"],
 "data": [
  ["clone 11 (PWFW) (antibody, V domains shown) VH: QVTLRESGPALVKPTQTLTLTCTFSGFSLSTPGMSVGWIRQPPGKALEWLADIWWDDKKDYNPSLKSRLTISKDTSKNQVVLKVTNMDPADTATYYCARSMITNWYFDVWGQGTTVTVSS VL: DIQMTQSPSTLSASVGDRVTITCSASSSVGYMHWYQQKPGKAPKLLIYDTFKLASGVPSRFSGSGSGTEFTLTISSLQPDDFATYYCFQGSWYPFTFGGGTKVEIK", "3 arbitrary score (0-4)"],
  ["clone 18 (SFFG) (antibody, V domains shown) VH: QVTLRESGPALVKPTQTLTLTCTFSGFSLSTSGMSVGWIRQPPGKALEWLADIWWDDKKDYNPSLKSRLTISKDTSKNQVVLKVTNMDPADTATYYCARSMITNFYFDVWGQGTTVTVSS VL: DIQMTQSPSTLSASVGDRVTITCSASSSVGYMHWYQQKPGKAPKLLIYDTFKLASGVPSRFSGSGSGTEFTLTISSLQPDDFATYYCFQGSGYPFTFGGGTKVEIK", "2 arbitrary score (0-4)"]
]}
